biological target: Beta-2 adrenergic receptor (Homo sapiens, UniProt P07550); assay: Inhibitory activity against CHO cells expressing human Beta-2 adrenergic receptor with [125I]-iodocyanopindolol; assay type: cell-based
Sequence (P07550 whole entry): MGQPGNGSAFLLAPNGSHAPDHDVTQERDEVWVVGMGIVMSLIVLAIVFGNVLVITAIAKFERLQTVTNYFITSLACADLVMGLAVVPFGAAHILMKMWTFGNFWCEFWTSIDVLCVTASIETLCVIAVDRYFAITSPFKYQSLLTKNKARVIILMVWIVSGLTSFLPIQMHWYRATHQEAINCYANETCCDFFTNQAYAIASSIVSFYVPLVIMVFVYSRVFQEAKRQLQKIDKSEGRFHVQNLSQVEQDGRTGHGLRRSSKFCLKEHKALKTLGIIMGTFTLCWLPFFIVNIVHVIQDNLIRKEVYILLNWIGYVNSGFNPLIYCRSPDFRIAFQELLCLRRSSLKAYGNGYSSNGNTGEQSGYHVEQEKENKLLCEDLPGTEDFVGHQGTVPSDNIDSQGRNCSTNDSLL
measurement-label: pIC50
Give bare numbers, as −log10 of the molar value.

Some compounds with known pIC50 results, for comparison:
{"compound": "COc1cc(-c2ccc(CC3NCCc4cc(O)c(O)cc43)cc2)cc(OC)c1OC (centres undefined)", "target-of-assay": "Beta-2 adrenergic receptor (Homo sapiens, UniProt P07550)", "pIC50": 6.12}
{"compound": "CCCCCCNC(=O)Nc1ccc(S(=O)(=O)Nc2ccc(-c3cccc(CC4NCCc5cc(O)c(O)cc54)c3)cc2)cc1 (centres undefined)", "target-of-assay": "Beta-2 adrenergic receptor (Homo sapiens, UniProt P07550)", "pIC50": 4.00}
{"compound": "CCCCCCNC(=O)Nc1ccc(S(=O)(=O)Nc2cccc(-c3cccc(CC4NCCc5cc(O)c(O)cc54)c3)c2)cc1 (centres undefined)", "target-of-assay": "Beta-2 adrenergic receptor (Homo sapiens, UniProt P07550)", "pIC50": 6.15}

What the record says about CCCCCCNC(=O)Nc1ccc(S(=O)(=O)Nc2cccc(-c3ccc(OCC4NCCc5cc(O)c(O)cc54)cc3)c2)cc1 (centres undefined) : pIC50 is 6.00

---

target: UniProt P13945; assay: Inhibitory activity against human beta-3 adrenergic receptor (AR); format: functional
Sequence (P13945 whole entry): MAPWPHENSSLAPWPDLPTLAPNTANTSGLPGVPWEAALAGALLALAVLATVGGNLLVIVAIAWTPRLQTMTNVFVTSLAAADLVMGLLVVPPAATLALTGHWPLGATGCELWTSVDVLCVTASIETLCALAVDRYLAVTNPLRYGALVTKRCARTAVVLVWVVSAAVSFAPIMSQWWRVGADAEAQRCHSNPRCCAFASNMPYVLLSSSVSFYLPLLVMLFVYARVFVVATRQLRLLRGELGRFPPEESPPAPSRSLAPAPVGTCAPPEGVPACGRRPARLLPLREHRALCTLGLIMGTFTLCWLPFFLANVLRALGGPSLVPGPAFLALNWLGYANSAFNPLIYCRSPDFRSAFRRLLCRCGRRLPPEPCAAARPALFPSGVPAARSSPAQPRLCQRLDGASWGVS
Field 'label' (enum: label 1 / label 0). Set to label 1 when EC50 is strictly under 80 nM; else label 0.

Illustrative cases are given below, each with its answer.
{"compound": "COc1cc(C[C@@H]2NCCc3cc(O)c(O)cc32)cc(OC)c1OC", "group-label": "label 1"}
{"compound": "CCCCCCNC(=O)Nc1ccc(S(=O)(=O)Nc2ccc(-c3ccc(OCC4NCCc5cc(O)c(O)cc54)cc3)cc2)cc1 (stereo not given)", "group-label": "label 1"}
{"compound": "CCCCCCNC(=O)Nc1ccc(S(=O)(=O)Nc2ccc(CC3NCCc4cc(O)c(O)cc43)cc2)cc1 (stereo not given)", "group-label": "label 1"}

Q: Problem: For the compound CCCCCCNC(=O)Nc1ccc(S(=O)(=O)Nc2ccc(-c3cccc(CC4NCCc5cc(O)c(O)cc54)c3)cc2)cc1 (stereo not given) , is EC50 under 80 nM?
Ans: label 0

Q: Consider the compound COc1cc(-c2ccc(CC3NCCc4cc(O)c(O)cc43)cc2)cc(OC)c1OC (stereo not given) . Is its EC50 strictly less than 80 nM?
Ans: label 1

Q: Check if EC50 falls below 80 nM for CCCCCCNC(=O)Nc1ccc(S(=O)(=O)Nc2ccc(-c3ccc(CC4NCCc5cc(O)c(O)cc54)cc3)cc2)cc1 (stereo not given) .
Ans: label 1

Q: Is EC50 strictly under 80 nM for the entry CCCCCCNC(=O)Nc1ccc(S(=O)(=O)Nc2cccc(-c3ccc(CC4NCCc5cc(O)c(O)cc54)cc3)c2)cc1 (stereo not given) ?
Ans: label 0

Q: Take the compound CCCCCCNC(=O)Nc1ccc(S(=O)(=O)Nc2cccc(-c3cccc(CC4NCCc5cc(O)c(O)cc54)c3)c2)cc1 (stereo not given) and say whether its EC50 is less than 80 nM.
Ans: label 0

Q: Is EC50 strictly under 80 nM for the entry COc1c(I)cc(CC2NCCc3nc(N)sc32)cc1I (stereo not given) ?
Ans: label 0

---

target: Beta-3 adrenergic receptor (Homo sapiens); assay: Adenylyl cyclase activation at human beta-3 adrenergic receptor (AR); type: functional; parameters: concentration or dose not given beside the values
Sequence (P13945 whole entry, looked up): as the sequence (P13945 whole entry) above
Assign Activation to each entry below.
In your response, put the unit directly after the numeric value.

{"compound": "CCCCCCNC(=O)Nc1ccc(S(=O)(=O)Nc2ccc(-c3ccc(CC4NCCc5cc(O)c(O)cc54)cc3)cc2)cc1 (stereo not drawn)", "target-of-assay": "Beta-3 adrenergic receptor (Homo sapiens)", "Activation": "91%"}

Batch of 2 compounds: report Activation for each.
1. CCCCCCNC(=O)Nc1ccc(S(=O)(=O)Nc2cccc(-c3ccc(CC4NCCc5cc(O)c(O)cc54)cc3)c2)cc1 (stereo not drawn)
2. CCCCCCNC(=O)Nc1ccc(S(=O)(=O)Nc2ccc(CC3NCCc4cc(O)c(O)cc43)cc2)cc1 (stereo not drawn)

Ans:
1: 100%; 2: 82%
